- Test system: Wolbachia pipientis
- ASSAY METHOD TEXT: Anti-Wolbachia Cell-Based Screen
- Format: functional
- Design: scale not given: in the data most compounds retested in dose-response had high values
- CONDITION DETAILS: 5 µM
The campaign covered roughly 48,000 compounds. About 13,000 (27%) showed an effect of 50% or more. Some of the results follow.
Below is a list of entries, each paired with its recorded Percent Effect value.
A number alone suffices; assume %.

Worked cases, Percent Effect given:
[[record]]
compound = "Cn1cc(CN2CCc3ccc(=O)n(CC4CC4)c3CC2)cn1"
value_units = "%"
result_value = 115.2

[[record]]
compound = "CCCn1[nH]cc/c1=N\\C(=O)CN1CCc2cnc(C(C)C)nc2C1"
value_units = "%"
result_value = 129.2

[[record]]
compound = "CCNC(=O)[C@@H]1C[C@H](NC(=O)c2cc(=O)[nH]c3ccc(C)cc23)CN1C"
value_units = "%"
result_value = 116.2

[[record]]
compound = "COc1ccc(CCC2CCCN(C(=O)c3cnc(N)nc3C)C2)cc1 (stereo unspecified)"
value_units = "%"
result_value = 107.8

[[record]]
compound = "NS(=O)(=O)CCNC(=O)c1ccc(-c2ccc(F)cc2)cc1F"
value_units = "%"
result_value = -11.53

[[record]]
compound = "CN(C)c1cccc(C(=O)N2CCc3ccc(=O)[nH]c3CC2)c1"
value_units = "%"
result_value = -3.419

[[record]]
compound = "Cc1ccc2[nH]c(=O)cc(C(=O)N[C@@H]3C[C@@H](CO)N(C)C3)c2c1"
value_units = "%"
result_value = 108.3

[[record]]
compound = "CC(OCC1CC1)C(=O)N1CCCN(Cc2cnn(C)c2)CC1 (stereo unspecified)"
value_units = "%"
result_value = 6.432

[[record]]
compound = "CNc1ccc(C)cc1C(=O)N[C@H]1C[C@H]2CN(C)CCN2C1"
value_units = "%"
result_value = 9.233

[[record]]
compound = "O=c1ccc2c(n1Cc1ccncc1)CCN(C1CCOC1)CC2 (stereo unspecified)"
value_units = "%"
result_value = 8.67


Exercise: Look up Percent Effect for this compound: COC(=O)[C@@H]1C[C@H](NC(=O)Cn2c(=O)cc(C)c3ccccc32)CN1C
Key: 0.9939

The origin of these recorded values is ChEMBL document CHEMBL3988442.
